target: Cathepsin B1 (EC 3.4.22.1 from bovine spleen) (Bos taurus); settings: Cathepsin B, 4 h
Square brackets hold non-standard residues; d marks the D form. Peptide text beside a SMILES is read from it. * marks the point of attachment. Gly(1-amidinopiperidin-4-yl) = N=C(N)N1CCC([C@H](N)C(=O)O)CC1; Tic = O=C(O)[C@@H]1Cc2ccccc2CN1; Cha = N[C@@H](CC1CCCCC1)C(=O)O; NMe(benzyl) = CN(Cc1ccccc1)*; Nle = CCCC[C@H](N)C(=O)O; X5 = OCCN(Cc1ccccc1)*

{"compound": "CCCC[C@H](NC(=O)[C@@H]1Cc2ccccc2CN1C(=O)[C@@H](NC(=O)[C@H](CC1CCCCC1)NC(C)=O)C1CCN(C(=N)N)CC1)C(=O)N(CCO)Cc1ccccc1 [Compound P78, Ac-Cha-Gpg-Tic-Nle-N(Bn)CH2CH2OH] (Ac-[Cha][Gly(1-amidinopiperidin-4-yl)][Tic][Nle]-X5)", "Stability (Arbitrary units) Cath B 4 h": 100}
{"compound": "CCCC[C@H](NC(=O)C1c2ccccc2CN1C(=O)[C@@H](NC(=O)[C@H](CC1CCCCC1)NC(C)=O)C1CCN(C(=N)N)CC1)C(=O)N(C)Cc1ccccc1 (single isomer, unassigned) [Compound P76-1, Ac-Cha-Gpg-Disc-Nle-N(Me)Bn]", "Stability (Arbitrary units) Cath B 4 h": 100}
{"compound": "CCCC[C@H](NC(=O)[C@@H]1Cc2ccccc2CN1C(=O)[C@H](CCCNC(=N)N)NC(=O)[C@H](CC1CCCCC1)NC(C)=O)C(=O)N(C)Cc1ccccc1 [Compound P71, Ac-Cha-Arg-Tic-Nle-N(Me)Bn] (Ac-[Cha]R[Tic][Nle]-{NMe(benzyl)})", "Stability (Arbitrary units) Cath B 4 h": 97}

* * *

Assay: Stability of compounds in human blood plasma
Type: in vitro ADME
Description: The stability of the peptidomimetic compounds was determined in rat (Charles River Laboratories, Sulzfeld), mouse (Charles River Laboratories, Sulzfeld) and human (Bayerisches Rotes Kreuz, München) blood plasma (E. R. Garrett and M. R. Gardner, J Pharmaceutical Sciences 71 (1982) 14-25). Compound stock solutions were diluted into blood plasma to give a final compound concentration of 5 μM and the mixtures were incubated at 37° C. […]
Numbered stars: 1 amine (or outer) side, 2 acyl side, 3 side chain; on linkers, the order of the positions; unused ones are H or OH. Square brackets hold non-standard residues; d marks the D form. Peptide text beside a SMILES is read from it. * marks the point of attachment. ξ: configuration not given here. Gly(1-amidinopiperidin-4-yl) = N=C(N)N1CCC([C@H](N)C(=O)O)CC1; Tetrahydroisoquinolin(2-yl) = c1ccc2c(c1)CCN(*)C2; X1 = CC(C)c1oc([C@H](CO)N[*:1])nc1C(=O)[*:2]; Pro(3R-Ph) = O=C(O)[C@H]1NCC[C@@H]1c1ccccc1; Tic = O=C(O)[C@@H]1Cc2ccccc2CN1; Cha = N[C@@H](CC1CCCCC1)C(=O)O; NHPhenethyl = c1ccc(CCN*)cc1; NMe(benzyl) = CN(Cc1ccccc1)*; ξDisc = O=C(O)C1NCc2ccccc21; X4 = OCCOCCN(CCc1ccccc1)*; Nle = CCCC[C@H](N)C(=O)O; X5 = OCCN(Cc1ccccc1)*; X3 = OCCOCCN*
Consider the cut-off 100 Arbitrary units. If the recorded Stability (Arbitrary units) Human 24 h is strictly smaller, the label is fulfilled; if not, the label is not fulfilled.

{"compound": "CCCC[C@H](NC(=O)[C@@H]1Cc2ccccc2CN1C(=O)[C@@H](NC(=O)[C@H](CC1CCCCC1)NC(C)=O)C1CCN(C(=N)N)CC1)C(=O)NCCc1ccccc1 [Compound P69, Ac-Cha-Gpg-Tic-Nle-N(H)CH2CH2Ph] (Ac-[Cha][Gly(1-amidinopiperidin-4-yl)][Tic][Nle]-NHPhenethyl)", "class": "fulfilled"}
{"compound": "CSCC[C@H](NC(=O)[C@@H]1Cc2ccccc2CN1C(=O)[C@@H](NC(=O)[C@H](CC1CCCCC1)NC(C)=O)C1CCN(C(=N)N)CC1)C(=O)N1CC[C@H](c2ccccc2)[C@H]1C(=O)N[C@@H](CO)c1nc(C(=O)N(C)C)c(C(C)C)o1 [Compound P60] (Ac-[Cha][Gly(1-amidinopiperidin-4-yl)][Tic]M[Pro(3R-Ph)][X1]-NMe2)", "class": "not fulfilled"}
{"compound": "CCCC[C@H](NC(=O)[C@@H]1Cc2ccccc2CN1C(=O)[C@@H](NC(=O)[C@H](CC1CCCCC1)NC(C)=O)C1CCN(C(=N)N)CC1)C(=O)N1CC[C@H](c2ccccc2)[C@H]1C(=O)N[C@@H](CO)c1nc(C(=O)N(C)C)c(C(C)C)o1 [Compound P53] (Ac-[Cha][Gly(1-amidinopiperidin-4-yl)][Tic][Nle][Pro(3R-Ph)][X1]-NMe2)", "class": "not fulfilled"}
{"compound": "CCCC[C@H](NC(=O)[C@@H]1Cc2ccccc2CN1C(=O)[C@@H](NC(=O)[C@H](CC1CCCCC1)NC(C)=O)C1CCN(C(=N)N)CC1)C(=O)NCCOCCO [Compound P70, Ac-Cha-Gpg-Tic-Nle-N(H)CH2CH2OCH2CH2OH] (Ac-[Cha][Gly(1-amidinopiperidin-4-yl)][Tic][Nle]-X3)", "class": "fulfilled"}
{"compound": "CSCC[C@H](NC(=O)C1c2ccccc2CN1C(=O)[C@H](CCCNC(=N)N)NC(=O)[C@H](CC1CCCCC1)NC(C)=O)C(N)=O (stereo partly drawn) [Compound P12-1, Ac-Cha-Arg-Disc-Met-NH2] (Ac-[Cha]R[ξDisc]M-NH2)", "class": "fulfilled"}
{"compound": "CCCC[C@H](NC(=O)[C@@H]1Cc2ccccc2CN1C(=O)[C@H](CCCNC(=N)N)NC(=O)[C@H](CC1CCCCC1)NC(C)=O)C(=O)N(CCOCCO)CCc1ccccc1 [Compound P88] (Ac-[Cha]R[Tic][Nle]-X4)", "class": "not fulfilled"}
{"compound": "CCCC[C@H](NC(=O)[C@@H]1Cc2ccccc2CN1C(=O)[C@@H](NC(=O)[C@H](CC1CCCCC1)NC(C)=O)C1CCN(C(=N)N)CC1)C(=O)N1CCc2ccccc2C1 [Compound P77] (Ac-[Cha][Gly(1-amidinopiperidin-4-yl)][Tic][Nle]-{Tetrahydroisoquinolin(2-yl)})", "class": "not fulfilled"}
{"compound": "CCCC[C@H](NC(=O)[C@@H]1Cc2ccccc2CN1C(=O)[C@H](CCCNC(=N)N)NC(=O)[C@H](CC1CCCCC1)NC(C)=O)C(=O)NCCc1ccccc1 [Compound P82, Ac-Cha-Arg-Tic-Nle-N(H)CH2CH2Ph] (Ac-[Cha]R[Tic][Nle]-NHPhenethyl)", "class": "fulfilled"}
{"compound": "CSCC[C@H](NC(=O)C1c2ccccc2CN1C(=O)[C@@H](NC(=O)[C@H](CC1CCCCC1)NC(C)=O)C1CCN(C(=N)N)CC1)C(N)=O (stereo partly drawn) [Compound P66-1, Ac-Cha-Gpg-Disc-Met-NH2] (Ac-[Cha][Gly(1-amidinopiperidin-4-yl)][ξDisc]M-NH2)", "class": "fulfilled"}
{"compound": "CCCC[C@H](NC(=O)[C@@H]1Cc2ccccc2CN1C(=O)[C@@H](NC(=O)[C@H](CC1CCCCC1)NC(C)=O)C1CCN(C(=N)N)CC1)C(=O)N(C)Cc1ccccc1 [Compound P74, Ac-Cha-Gpg-Tic-Nle-N(Me)Bn] (Ac-[Cha][Gly(1-amidinopiperidin-4-yl)][Tic][Nle]-{NMe(benzyl)})", "class": "not fulfilled"}
{"compound": "CCCC[C@H](NC(=O)[C@@H]1Cc2ccccc2CN1C(=O)[C@@H](NC(=O)[C@H](CC1CCCCC1)NC(C)=O)C1CCN(C(=N)N)CC1)C(=O)N(CCO)Cc1ccccc1 [Compound P78, Ac-Cha-Gpg-Tic-Nle-N(Bn)CH2CH2OH] (Ac-[Cha][Gly(1-amidinopiperidin-4-yl)][Tic][Nle]-X5)", "class": "not fulfilled"}

Where do these numbers come from? They come from patent US7629318B2.
